test system: S. cerevisiae NKY1551 his4x/his4B, sporulating; assay: HIS4 meiotic recombination assay sensitivity score (z-score vs DMSO controls); higher = stronger inhibition of sporulation/recombination, active = hit call of the paper;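 note: active if sensitivity score above 5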
Counter-ions that a name gives are not always drawn.
Outcomes: active, inactive

Compound	Classification
CN1CCCC(n2nc(Cc3ccc(Cl)cc3)c3ccccc3c2=O)CC1 (stereo unspecified) [Azelastine hydrochloride] (stock concentration (mM, diluted 1:100): 9.1)	active
Cc1[nH]cnc1CN1CCc2c(c3ccccc3n2C)C1=O [Alosetron hydrochloride] (stock concentration (mM, diluted 1:100): 8.9)	inactive
CN1CCN(CCCN2c3ccccc3Sc3ccc(C(F)(F)F)cc32)CC1 [Trifluoperazine dihydrochloride] (stock concentration (mM, diluted 1:100): 10)	inactive
C[C@H]1COc2c(N3CCN(C)CC3)c(F)cc3c(=O)c(C(=O)O)cn1c23 [Levofloxacin] (stock concentration (mM, diluted 1:100): 10)	inactive
CCN1CCCC1CNC(=O)c1cc(S(=O)(=O)CC)c(N)cc1OC (stereo unspecified) [Amisulpride] (stock concentration (mM, diluted 1:100): 10)	inactive
Nc1ncnc2c1ncn2[C@@H]1O[C@H](CO)C[C@@H]1O [3-Deoxydenosine] (stock concentration (mM, diluted 1:100): 10)	active

====

test system: S. cerevisiae BY4741 (wild-type), vegetative growth in YPD; assay: growth sensitivity score (doubling time z-score vs DMSO controls); higher = slower growth, strongly negative scores also mark growth inhibition (complete suppression), active = hit call of the paper
Structures can show the parent of a compound that is named as a salt.
Using growth sensitivity score as the sorting value, the categories are one: < -0.7; two: ≥ -0.7 and < 0.9; three: ≥ 0.9

Molecule	Classification
CCOC(=O)OC(C)OC1=C(C(=O)Nc2ccccn2)N(C)S(=O)(=O)c2ccccc21 (stereo unspecified) [Ampiroxicam] (stock concentration (mM, diluted 1:100): 10)	two
CN(C)CCC[C@@]1(c2ccc(F)cc2)OCc2cc(C#N)ccc21 [Escitalopram oxalate] (stock concentration (mM, diluted 1:100): 7.9)	three
CN(Cc1cnc2nc(N)nc(N)c2n1)c1ccc(C(=O)N[C@@H](CCC(=O)O)C(=O)O)cc1 [Methotrexate] (stock concentration (mM, diluted 1:100): 14.6)	two
COC1=C(OC)C(=O)C(CCCCCCCCCCO)=C(C)C1=O [Idebenone] (stock concentration (mM, diluted 1:100): 10.2)	three
Cc1ncc([N+](=O)[O-])n1CC(O)CCl (stereo unspecified) [Ornidazole] (stock concentration (mM, diluted 1:100): 10)	one
CN(CCOc1ccc(CC2SC(=O)NC2=O)cc1)c1ccccn1 (stereo unspecified) [Rosiglitazone maleate] (stock concentration (mM, diluted 1:100): 7.6)	three
Nc1nc(Cl)nc2c1ncn2[C@@H]1O[C@H](CO)[C@@H](O)[C@H]1O [2-Chloroadenosine] (stock concentration (mM, diluted 1:100): 10)	one
Cc1c2oc3c(C)ccc(C(=O)N[C@@H]4C(=O)N[C@H](C(C)C)C(=O)N5CCC[C@H]5C(=O)N(C)CC(=O)N(C)[C@@H](C(C)C)C(=O)O[C@@H]4C)c3nc-2c(C(=O)N[C@@H]2C(=O)N[C@H](C(C)C)C(=O)N3CCC[C@H]3C(=O)N(C)CC(=O)N(C)[C@@H](C(C)C)C(=O)O[C@@H]2C)c(N)c1=O [Dactinomycin] (stock concentration (mM, diluted 1:100): 10)	three
C[C@]12C=CC(=O)C=C1CC[C@@H]1[C@@H]2[C@@H](O)C[C@@]2(C)[C@H]1CC[C@]2(O)C(=O)COC(=O)CCC(=O)O (stock concentration (mM, diluted 1:100): 10)	two
CN(C)CCC=C1c2ccccc2COc2ccccc21 [Doxepin] (stock concentration (mM, diluted 1:100): 10)	three
C[C@]12CC[C@@H]3c4ccc(OS(=O)(=O)O)cc4CC[C@H]3[C@@H]1CCC2=O (stock concentration (mM, diluted 1:100): 10)	one
COc1cc(C)c(Cc2cnc(N)nc2N)cc1OC [Ormetoprim] (stock concentration (mM, diluted 1:100): 10)	one
CNS(=O)(=O)Cc1ccc2[nH]cc(CCN(C)C)c2c1 [Sumatriptan succinate] (stock concentration (mM, diluted 1:100): 7.2)	one
CN(C)CC[C@@H](c1ccc(Cl)cc1)c1ccccn1 [Dexchlorpheniramine maleate] (stock concentration (mM, diluted 1:100): 7)	two
CC(=O)OCC(CCn1cnc2cnc(N)nc21)COC(C)=O [Famciclovir] (stock concentration (mM, diluted 1:100): 10)	one
COC(=O)C1=C(C)NC(C)=C(C(=O)OC)C1c1ccccc1[N+](=O)[O-] [Nifedipine] (stock concentration (mM, diluted 1:100): 10.7)	three
CCCCC[C@H](O)/C=C/[C@H]1[C@H](O)CC(=O)[C@@H]1CCCCCCC(=O)O [Prostaglandin E1] (stock concentration (mM, diluted 1:100): 10)	two
C#C[C@]1(O)CC[C@H]2[C@@H]3CCc4cc(OC)ccc4[C@H]3CC[C@@]21C [Mestranol] (stock concentration (mM, diluted 1:100): 10)	two
C[C@H](N[C@@H](CCc1ccccc1)C(=O)O)C(=O)N1CCC[C@H]1C(=O)O [Enalaprilat] (stock concentration (mM, diluted 1:100): 10)	two
COc1ccc2c(c1)c(CC(=O)O)c(C)n2C(=O)c1ccc(Cl)cc1 [Indomethacin] (stock concentration (mM, diluted 1:100): 10.5)	two

====

tested on: S. cerevisiae BY4741 (wild-type), vegetative growth in YPD; assay: growth sensitivity score (doubling time z-score vs DMSO controls); higher = slower growth, strongly negative scores also mark growth inhibition (complete suppression), active = hit call of the paper
Where a name gives a salt, the structure may show the parent alone.

Compound	growth sensitivity score
C[C@H]1O[C@H](O[C@H]2[C@H](O)[C@@H](O)[C@@H](O[C@H]3[C@H](O)[C@@H](O)C(O)O[C@@H]3CO)O[C@@H]2CO)[C@H](O)[C@@H](O)[C@@H]1N[C@H]1C=C(CO)[C@@H](O)[C@H](O)[C@H]1O (stereo partly specified) [Acarbose] (stock concentration (mM, diluted 1:100): 10)	-1.13
CN1CCN(C2=Nc3ccccc3Oc3ccc(Cl)cc32)CC1 [Loxapine succinate] (stock concentration (mM, diluted 1:100): 11)	1.9
Nc1[nH]c(=O)ncc1F [5-Fluorocytosine] (stock concentration (mM, diluted 1:100): 10.5)	54.5
CCCCCCNC(=O)n1cc(F)c(=O)[nH]c1=O [Carmofur] (stock concentration (mM, diluted 1:100): 10.3)	37.2
CC(=O)N1CCN(c2ccc(OCC3COC(Cn4ccnc4)(c4ccc(Cl)cc4Cl)O3)cc2)CC1 (stereo unspecified) [Ketoconazole] (stock concentration (mM, diluted 1:100): 10)	35.3
CN(C)CC[C@@H](c1ccc(Br)cc1)c1ccccn1 [Dexbrompheniramine maleate] (stock concentration (mM, diluted 1:100): 7.3)	-1.48
CC(C(=O)O)c1ccc(-c2ccccc2)c(F)c1 (stereo unspecified) [Flurbiprofen] (stock concentration (mM, diluted 1:100): 11.4)	0.01
COc1ccc(CC(C)NCC(O)c2ccc(O)c(NC=O)c2)cc1 (stereo unspecified) [Formoterol fumarate dihydrate] (stock concentration (mM, diluted 1:100): 7)	-0.1
COc1ccc(CN2CCN(C(c3ccc(F)cc3)c3ccc(F)cc3)CC2)c(OC)c1OC [Lomerizine dihydrochloride] (stock concentration (mM, diluted 1:100): 8.7)	2.29
COc1cc2nc(N3CCN(C(=O)c4ccco4)CC3)nc(N)c2cc1OC [Prazosin] (stock concentration (mM, diluted 1:100): 10)	-0.58
O=C1Nc2ccc(Cl)cc2[C@@](C#CC2CC2)(C(F)(F)F)O1 [Efavirenz] (stock concentration (mM, diluted 1:100): 10.1)	40.5

====

system: S. cerevisiae AD1-9 (efflux-pump deficient), vegetative growth in YPD; experiment: growth sensitivity score (doubling time z-score vs DMSO controls); higher = slower growth, strongly negative scores also mark growth inhibition (complete suppression), active = hit call of the paper
Where a name gives a salt, the structure may show the parent alone.
Record fulfilled whenever growth sensitivity score is at -1 or higher; record not fulfilled when lower.

Compound	Classification
CCOC(=O)[C@@]1(CCCCCCOc2ccc(Cl)cc2)CO1 [Etomoxir] (stock concentration (mM, diluted 1:100): 10)	fulfilled
Nc1nc2ccc(OC(F)(F)F)cc2s1 [Riluzole] (stock concentration (mM, diluted 1:100): 9.9)	fulfilled
O=c1ncc(F)c[nH]1 [5-Fluoro-2-Pyrimidone] (stock concentration (mM, diluted 1:100): 10)	fulfilled
Cc1ncc([N+](=O)[O-])n1CC(C)O (centres undefined) [Secnidazole] (stock concentration (mM, diluted 1:100): 10)	fulfilled
O=C1C(c2c(O)[nH]c3ccccc23)=Nc2ccccc21 [Indarubicin] (stock concentration (mM, diluted 1:100): 10)	not fulfilled
Nc1nc(Cl)nc2c1ncn2[C@H]1C[C@H](O)[C@@H](CO)O1 [2-Chloro-2-Deoxyadenosine] (stock concentration (mM, diluted 1:100): 10)	not fulfilled
CC(C)[C@H]1CC[C@H](C(=O)N[C@H](Cc2ccccc2)C(=O)O)CC1 [Nateglinide] (stock concentration (mM, diluted 1:100): 10)	fulfilled
CN1CC(=O)N2[C@H](c3ccc4c(c3)OCO4)c3[nH]c4ccccc4c3C[C@@H]2C1=O [Tadalafil] (stock concentration (mM, diluted 1:100): 10)	not fulfilled
NNCCc1ccccc1 [Phenelzine sulfate salt] (stock concentration (mM, diluted 1:100): 10)	fulfilled
N[C@@H](C(=O)N[C@@H]1C(=O)N2C(C(=O)O)=C(Cl)CS[C@H]12)c1ccccc1 [Cefaclor] (stock concentration (mM, diluted 1:100): 10)	not fulfilled
Nc1ccn([C@@H]2O[C@H](CO)[C@@H](O)[C@@H]2O)c(=O)n1 [Cytarabine] (stock concentration (mM, diluted 1:100): 10)	not fulfilled
O=c1[nH]cnc2c1ncn2[C@H]1CC[C@@H](CO)O1 [Didanosine] (stock concentration (mM, diluted 1:100): 10.1)	not fulfilled
Clc1ccc(CO/N=C(\Cn2ccnc2)c2ccc(Cl)cc2Cl)c(Cl)c1 [Oxiconazole nitrate] (stock concentration (mM, diluted 1:100): 10)	fulfilled
Clc1cccc(Cl)c1NC1=NCCN1 [Clonidine] (stock concentration (mM, diluted 1:100): 10)	not fulfilled
COc1ccccc1OCC(O)CN1CCN(CC(=O)Nc2c(C)cccc2C)CC1 (centres undefined) [Ranolazine dihydrochloride] (stock concentration (mM, diluted 1:100): 8.6)	not fulfilled
Oc1ccc(C2CNCCc3c2cc(O)c(O)c3Cl)cc1 (centres undefined) [Fenoldopam mesylate] (stock concentration (mM, diluted 1:100): 7.7)	not fulfilled
CN(C)CCc1c[nH]c2ccc(C[C@H]3COC(=O)N3)cc12 [Zolmitriptan] (stock concentration (mM, diluted 1:100): 10)	not fulfilled
COC(=O)CCc1ccc(OCC(O)CNC(C)C)cc1 (centres undefined) [Esmolol hydrochloride] (stock concentration (mM, diluted 1:100): 9)	not fulfilled
Cc1c(OCC(F)(F)F)ccnc1C[S+]([O-])c1nc2ccccc2[nH]1 (centres undefined) [Lansoprazole] (stock concentration (mM, diluted 1:100): 10.1)	fulfilled
CCc1ccc(CCOc2ccc(CC3SC(=O)NC3=O)cc2)nc1 (centres undefined) [Pioglitazone hydrochloride] (stock concentration (mM, diluted 1:100): 9.1)	not fulfilled
CS(=O)(=O)c1ccc(-c2cc(Br)sc2-c2ccc(F)cc2)cc1 (stock concentration (mM, diluted 1:100): 10)	fulfilled
CCN(CC)CC(=O)Nc1c(C)cccc1C [Lidocaine] (stock concentration (mM, diluted 1:100): 9.6)	fulfilled
C=CC1=C(C(=O)O)N2C(=O)[C@@H](NC(=O)/C(=N\O)c3csc(N)n3)[C@H]2SC1 [Cefdinir] (stock concentration (mM, diluted 1:100): 10)	not fulfilled
